Molecular target: AKT2 (Homo sapiens, UniProt P31751)
Sequence (P31751 whole entry): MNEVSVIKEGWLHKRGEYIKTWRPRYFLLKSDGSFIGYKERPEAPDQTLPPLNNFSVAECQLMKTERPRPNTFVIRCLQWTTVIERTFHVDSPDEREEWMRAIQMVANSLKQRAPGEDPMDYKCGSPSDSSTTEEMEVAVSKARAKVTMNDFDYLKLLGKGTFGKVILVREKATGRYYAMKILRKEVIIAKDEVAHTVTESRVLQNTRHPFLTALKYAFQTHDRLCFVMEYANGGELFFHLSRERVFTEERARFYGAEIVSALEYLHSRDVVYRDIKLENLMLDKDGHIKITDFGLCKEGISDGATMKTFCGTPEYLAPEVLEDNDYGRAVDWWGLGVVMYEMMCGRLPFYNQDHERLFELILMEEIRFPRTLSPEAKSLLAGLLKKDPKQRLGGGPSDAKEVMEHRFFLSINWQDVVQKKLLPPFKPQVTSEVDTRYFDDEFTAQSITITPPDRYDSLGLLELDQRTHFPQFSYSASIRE
Assay: AKT Kinase Assay (IMAP fluorescent polarisation) vs AKT2
Conditions: activated AKT2, FAM Crosstide substrate
pIC50: −log10 of the molar value. Structures can show the parent of a compound that is named as a salt.
measured-parameter: pIC50

[in] Give recorded pIC50 with AKT2 (Homo sapiens, UniProt P31751) for the following molecule: "NC(=O)c1ccc2c(-c3ccccc3)c(-c3ccc(C4(N)CCC4)cc3)oc2c1"
[out] 5.00 to 6.00

[in] Queued: Cn1c(OCCO)nc2oc(-c3ccc(C4(N)CCC4)cc3)c(-c3ccccc3)c2c1=O [Example 85, HCl]
[out] ≥ 7.00

[in] Would you kindly repeat that for Cn1c(NCCO)nc2oc(-c3ccc(C4(N)CCC4)cc3)c(-c3ccccc3)c2c1=O [Example 64, hydrochloride] ?
[out] 6.00 to 7.00

[in] "COc1nc(NCCN)nc2oc(-c3ccc(C4(N)CCC4)cc3)c(-c3ccccc3)c12" , same question.
[out] 6.00 to 7.00

[in] Then what about the molecule "C[C@@H](CO)Nc1nc2oc(-c3ccc(C4(N)CCC4)cc3)c(-c3ccccc3)c2c(=O)n1C" ?
[out] 6.00 to 7.00

[in] Okay, and "COc1nc(NCCN(C)C)nc2oc(-c3ccc(C4(N)CCC4)cc3)c(-c3ccccc3)c12" ?
[out] 6.00 to 7.00

[in] Cool, now CNc1nc2oc(-c3ccc(C4(N)CCC4)cc3)c(-c3ccccc3)c2c(=O)n1C [Example 65, hydrochloride]
[out] 6.00 to 7.00

[in] Follow-up item: "NC1(c2ccc(-c3oc4nc(OCCO)ncc4c3-c3ccccc3)cc2)CCC1"
[out] 6.00 to 7.00

[in] Thanks! And CNc1nc2oc(-c3ccc(C4(N)CCC4)cc3)c(-c3ccccc3)c2c(=O)n1CCOC [Example 69, HCl] ?
[out] 6.00 to 7.00

[in] Lookup "NC1(c2ccc(-c3oc4c(=O)n(CCF)ccc4c3-c3ccccc3)cc2)CCC1"
[out] 6.00 to 7.00

[in] Check "COc1nccc2c(I)c(-c3ccc(C4(N)CCC4)cc3)oc12" too.
[out] 5.00 to 6.00

[in] Then what about the molecule NC(=O)c1cccc(-c2cnc3oc(-c4ccc(C5(N)CCC5)cc4)c(-c4ccccc4)c3n2)c1 [Example 152, HCl] ?
[out] 5.00 to 6.00

[in] Also "COc1nc(NCCCO)nc2oc(-c3ccc(C4(N)CCC4)cc3)c(-c3ccccc3)c12" ?
[out] 6.00 to 7.00

[in] // same read-out, input: "Cn1nccc1-c1cnc2oc(-c3ccc(C4(N)CCC4)cc3)c(-c3ccccc3)c2n1"
[out] 5.00 to 6.00

[in] Next molecule: "NC1(c2ccc(-c3oc4ncc(COCc5ccccc5)nc4c3-c3ccccc3)cc2)CCC1"
[out] 6.00 to 7.00

[in] Same question for "NC1(c2ccc(-c3oc4ncc(-c5cn[nH]c5)nc4c3-c3ccccc3)cc2)CCC1" please.
[out] 6.00 to 7.00

These data points were gathered from patent US20120309739A1.
